experiment: yeast display, Sf9 membrane polyspecificity reagent, FACS + sequencing; frameworks hold sequencing errors
Quantity kind: polyreactivity (PSR sort gate)

Worked examples follow.
Problem: Any idea what its polyreactivity (PSR sort gate) is? The sequence is `QVQLVESGGGLVQAGGSLRLSCAASGSIFRYYAMGWYRQAPGKEREFDASITYRGGRTYYADSVKGRFTISRDNAKNTVYLQMNSLKPEDTAVYYCAARTRAGAWTSKYHDYWGQGTQVTVSS`
Result: high polyreactivity

Problem: And then `QVQLVESGGGLVQAGGSLRLSCAASGINFTSYAMGWYRQAPGKERELVAAISSSGVRTYYADSVKGRFTISRDNAKNTVYLQMNSQKPEDTAVYYCATRRRVLYGYDYWGQGTQVTVSS` , what is it?
Result: high polyreactivity

Problem: One more sequence: `QVQLVESGGGLVQAGGSLRLSCAASGYTFWQYAMGWYRQAPGKERELVATITSRGGSTYYADSVKGRFTISRDNAKNTVYLQMNSLKPEDTAVYYCNARRRYSTRRSDYWGQGTQVTVSS`
Result: high polyreactivity

Problem: One more sequence: `QVQLVESGGGLVQAGGSLRLSCAASGYTFGTYDMGWYRQAPGKERELVAAISIGGSTNYADSVKGRFTISRDNEKNTVYLQMNSLKPVDTAVYYCAAEVNVGTLLLSVIVEDGDYWGQGTQVTVSS`
Result: low polyreactivity

Problem: // repeat for `QVQLVESGGGLVQAGGSLRLSCAASASTLRRYAMGLYRQAPGQERELVAAISGTGSRTYYADSVKGRFTISRDTAKITVYLQMNSLKPEDSAVYYCNASPYRLTENDYWGQGTQVTVSS` and report
Result: high polyreactivity

Problem: Also need `QVQLVESCGGLVQAGGSHRLSCAASGFTFTRNALGWYRQAPGKERELVAAISIRGSSTYYADSVKGRFTISRDNAKNTVYLQMNILKQEDTAVYYCSAPTFSLHGTYGYWGQGTQVTVSS` , thanks.
Result: high polyreactivity

Problem: Also, `QVQLVESGGGLVQAGGSLRLSCAASGRIFRNYAMGWYRQAPGKERELVAAISYTTGSTYYADSVKGRFTISRDNAKNTVYLQMNSLKPEDTAVYYCATTDWYFKFYYWGQGTQVTVSS` please.
Result: high polyreactivity

Problem: Proceed to `QVQLVESGGGLVQAGGSHRFSCAASGRIFYGHVMGWYRQAPGKERELVADISYDGGSTYYADSVKGRFTISRDNAKKTVYLQMNSLNPEDTAVYYGATRFVYRYTFWYYSTEYNYCGQGTQVTVSS`
Result: low polyreactivity

Problem: Then this sequence: `QVQLVESGGGLVQAGGSLRLSCAASGSTFSDNAMGWYRQAPGKEREFVAAINETGGSTYYADSVKGRFTISRDNAKNTVYVQMNSLKPEDTAVYYCNADIDPYGATYAIEYDYWGQGTQVTVSS`
Result: low polyreactivity

Problem: Item: `QFQLVESGGGLVQAGGSLRLSCAASGSTFGSYAMGWYRQAPAKESELVAAITASGGSTNYADSVKGRFTISRDNAKNTVYLQMNSLKPEDTAVYYCAADTTYSPLSIEYDYWGQGTQVTVSS`
Result: low polyreactivity

For every item below, please supply its polyreactivity (PSR sort gate).
1. QVQLVESGGGLVQAGGSLRLSCAASGITFRANAKGWYRQAPGKERELVAAISARGGSTYYADSVKGRFTISRDNAKNTVYLQMNSLNPEDTAVYYCAKELSQGMRYDYWGQGTQVTVSS
2. QVQLVESGGGLVQAGGSLRLSCAASGRTYVFYVMGWYRQAPGKERELVASISRSGGSTYYADSVKGRFTISRDNAKNTVYLQMNSLKPEDTAVYYCAADQLYYGERDYIWGYYYWGQGTQVTVSS
3. QVQLVESGGVLGQAGGSLRLSCAPSGSLIGGYAMGWYRQAPGKQRELVAAISYRGATTYYADSVKGRFTISRDNSKNTVYFQMNSLKPEDTAVYYCDVAARTRARVLYGYDYGGQGTQVTVSS
4. QVQLVESGGGLVQAGGSLRLSCAASGSTLFTYAMGWYRQAPGNERELVAAITSSGSTYYADSVKGRFTISRDNATNTVSLQMKSLKPEDTAVYYCAGPGYRYTNYYYWGQGTQVTVSS
5. QVQLVESGGGLVQAGGSLRLSCAASGRTFPGNAMGWYRQAPGKERELVATISSGGTTYYADSVKGRFTISRDNAKNTVYLQMNSLKPEDTAVYYCATDTYHHKADYEYWGQGTQVSVSS
6. QVQLVESGGGLVHAGGSLRLSCAASGRTFNGYVMGWYRQAPGKERELVAAITNRDGSTYYADSVKGRFTISRDNAKNTVYLQMYSLKPEDSAVYYCAAPVWLWADRYDSWGQGTQVTVSS

Result:
1: high polyreactivity; 2: low polyreactivity; 3: low polyreactivity; 4: low polyreactivity; 5: low polyreactivity; 6: low polyreactivity
